B1: PhoQ; a variant is named by its letters at X, in order, P23837 (parent)
chain: MKKLLRLFFPLSLRVRFLLATAAVVLVLSLAYGMVALIGYSVSFDKTTFRLLRGESNLFYTLAKWENNKLHVELPENIDKQSPTMTLIYDENGQLLWAQRDVPWLMKMIQPDWLKSNGFHEIEADVNDTSLLLSGDHSIQQQLQEVREDDDDAEMTHSVAVNVYPATSRMPKLTIVVVDTIPVELKSSYMVWSWFIYVLSANLLLVIPLLWVAAWWSLRPIEALAKEVRELEEHNRELLNPATTRELTSLVRNLNRLLKSERERYDKYRTTLTDLTHSLKTPLXXLQXXLRSLRSEKMSVSDAEPVMLEQISRISQQIGYYLHRASMRGGTLLSRELHPVAPLLDNLTSALNKVYQRKGVNISLDISPEISFVGEQNDFVEVMGNVLDNACKYCLEFVEISARQTDEHLYIVVEDDGPGIPLSKREVIFDRGQRVDTLRPGQGVGLAVAREITEQYEGKIVAGESMLGGARMEVIFGRQHSAPKDE

# Variants of: B1
# Measurement Description: enrichment ratio after two sorts for PhoP signalling (ratio (wild type AVST 3.29)); higher = more functional
# Study Conditions: with PhoP (E. coli)
Over roughly 140,000 sequences, “enrichment ratio after two sorts for PhoP signalling” has its median near 0; the highest 2% begin near 11. For the sample, the highest values were picked, then their nearest neighbours and some sequences at random.
Note to self: values exactly at 10 are Criterion met. So enrichment ratio at or above 10 is Criterion met, below is Criterion not met.

Prompt line: Could you verify whether the entry `SCCD` shows enrichment ratio of no less than 10?
Response line: Criterion met

Prompt line: Hi team, for `KYTN` , is the recorded enrichment ratio at or above 10?
Response line: Criterion not met

Prompt line: Check if enrichment ratio >= 10 (inclusive). Item: `KCCD`
Response line: Criterion not met

Prompt line: Tell me whether enrichment ratio is at least 10 here: `GNSS`
Response line: Criterion not met

Prompt line: Form field: enrichment ratio at least 10? Entry: `TCHA`
Response line: Criterion not met

Prompt line: Decide: is the reported value of enrichment ratio for `GIAG` equal to or greater than 10?
Response line: Criterion met

Prompt line: Given the entry `FQCD` , answer whether its enrichment ratio meets or surpasses 10.
Response line: Criterion not met

Prompt line: Given the entry `GISS` , answer whether its enrichment ratio meets or surpasses 10.
Response line: Criterion met

Prompt line: Say whether `GNTK` shows enrichment ratio of 10 or more.
Response line: Criterion not met

Prompt line: Determine whether this variant has enrichment ratio no lower than 10: `TAGG`
Response line: Criterion not met

Prompt line: Test whether the variant `DMQN` records enrichment ratio of 10 or higher.
Response line: Criterion not met

Prompt line: // inclusive: enrichment ratio at least 10? input: `GNLG`
Response line: Criterion not met

Prompt line: # bool: enrichment ratio of `TMTN` >= 10
Response line: Criterion met

Prompt line: Record `THTN` ; criterion: enrichment ratio no lower than 10. Met?
Response line: Criterion not met

Prompt line: Could you verify whether the entry `YITC` shows enrichment ratio of no less than 10?
Response line: Criterion not met

Prompt line: Given `DMTN` , state whether its enrichment ratio is at least 10.
Response line: Criterion not met

Prompt line: Does the variant `STTN` have recorded enrichment ratio that is 10 or more?
Response line: Criterion met

Prompt line: Please tell me: is the variant `VHTN` at or over 10 in terms of enrichment ratio?
Response line: Criterion not met

Prompt line: I'd appreciate it if you could say whether `AMTN` has enrichment ratio at least equal to 10.
Response line: Criterion met

Prompt line: Please indicate if the recorded enrichment ratio for `NMTN` meets or exceeds 10.
Response line: Criterion not met

Prompt line: Check if enrichment ratio >= 10 (inclusive). Item: `GIMG`
Response line: Criterion not met

Prompt line: Is enrichment ratio for `GITK` at or above 10?
Response line: Criterion met
